Test system: murine neural precursor cells (neurosphere cultures)
Experiment: HTS of LOPAC library against secondary neurosphere cultures, MTT proliferation assay at 3 μM, day 7 (z score, P value)
Type: cell-based, mouse
Conditions: LOPAC primary screen, neurosphere MTT proliferation, 3 μM, day 7
Structures can show the parent of a compound that is named as a salt.
Catalogue of molecules with associated Z score

molecule	system-under-test	Z score
CN1[C@@H]2CC[C@H]1C[C@@H](OC(c1ccccc1)c1ccccc1N)C2 (some centres unmarked)	murine neural precursor cells (neurosphere cultures)	−1.455
Cl.OCc1c[nH]cn1 [4-Imidazolemethanol hydrochloride]	murine neural precursor cells (neurosphere cultures)	−2.077
COc1cc([C@@H]2c3cc4c(cc3[C@@H](O[C@@H]3O[C@@H]5CO[C@@H](C)O[C@H]5[C@H](O)[C@H]3O)[C@H]3COC(=O)[C@H]23)OCO4)cc(OC)c1O [Etoposide (2), Etoposide]	murine neural precursor cells (neurosphere cultures)	−11.102
CCn1cc(C(=O)O)c(=O)c2cc(F)c(N3CCNC(C)C3)c(F)c21 (centres unmarked) [Lomefloxacin hydrochloride]	murine neural precursor cells (neurosphere cultures)	0.137
Cc1ccccc1N1CCN(S(=O)(=O)CC23CCC(CC2NC(=O)C(N)CCS(C)(=O)=O)C3(C)C)CC1 (centres unmarked)	murine neural precursor cells (neurosphere cultures)	0.291
CC1=C(CC(=O)O)c2cc(F)ccc2/C1=C\c1ccc([S+](C)[O-])cc1 (centres unmarked)	murine neural precursor cells (neurosphere cultures)	−0.194
CN(C)CCOC(c1ccccc1)c1ccccc1 [Diphenhydramine hydrochloride]	murine neural precursor cells (neurosphere cultures)	0.845
COc1ccc2[nH]c(I)c(CCNC(C)=O)c2c1	murine neural precursor cells (neurosphere cultures)	−0.135
CC[C@@H](CO)NC(=O)[C@@H]1C=C2c3cccc4[nH]cc(c34)C[C@H]2N(C)C1 [Methylergonovine maleate]	murine neural precursor cells (neurosphere cultures)	−0.785
CCCCCCCCCCCCCCCCCC(=O)NCC(COP(=O)([O-])OCC[N+](C)(C)C)OCC (racemic)	murine neural precursor cells (neurosphere cultures)	−1.112
CC(C)c1ccc2c(c1)c(SC(C)(C)C)c(CC(C)(C)C(=O)O)n2Cc1ccc(Cl)cc1	murine neural precursor cells (neurosphere cultures)	−1.549
O=C1c2c(O)ccc(O)c2C(=O)c2c(NCCNCCO)ccc(NCCNCCO)c21	murine neural precursor cells (neurosphere cultures)	−10.205
Cl.Cl.Cl.NCCCCNCCCN [Spermidine trihydrochloride]	murine neural precursor cells (neurosphere cultures)	1.259
O=C(Cc1ccc(Cl)c(Cl)c1)OCCN1CCCC1 [AC 915 oxalate]	murine neural precursor cells (neurosphere cultures)	−0.890
